- assay-system: OsWRKY34 (Oryza sativa, UniProt Q0JBA9 1-250)
- Sequence (Q0JBA9 entry or part of it): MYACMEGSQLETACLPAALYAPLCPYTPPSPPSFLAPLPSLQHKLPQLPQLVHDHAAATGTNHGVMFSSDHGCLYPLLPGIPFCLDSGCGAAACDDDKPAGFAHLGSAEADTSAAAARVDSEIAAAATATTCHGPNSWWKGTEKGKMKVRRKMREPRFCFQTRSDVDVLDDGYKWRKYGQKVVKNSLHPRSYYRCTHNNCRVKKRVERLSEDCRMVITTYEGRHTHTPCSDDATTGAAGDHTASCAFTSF
- experimental-details: protein-binding microarray (RPBM); PBS, 2% BSA, 51.3 ng/ul salmon testes DNA, 50 uM zinc acetate, 200 nM TF, 25 C, 1 h; high values mean tight binding
- measurement-conditions: protein: recombinant; tags: N-terminal polyhistidine and DsRed monomer fusion (pET32a); label: CyDye5-dUTP incorporated in the synthesized complementary strand; 3' TTTTT single-stranded linker to array surface; dsDNA, one strand shown
Over roughly 68,000 sequences, “fluorescence intensity (a.u.)” has its median near 9,100; the highest 2% begin near 16,000. For the sample, the highest values were picked, then their nearest neighbours and some sequences at random.
reported-endpoint: binding signal

Some solved cases for reference:
- sequence-code: "CTTGCTGCCTGGATTTCTCCCTGTTTGCTCCCTGACGGAGCGGAGTCACCTAGTGCAG"
  binding signal: "9470 fluorescence intensity (a.u.)"
- sequence-code: "GAATTTTTTTTTATCATCTTTGACGGGCACACAAATTTTACGGAGTCACCTAGTGCAG"
  binding signal: "8140 fluorescence intensity (a.u.)"
- sequence-code: "GTCATTGTTTGGAGTGGAGTTTTGCTTAGATTAATCTGTCCGGAGTCACCTAGTGCAG"
  binding signal: "8860 fluorescence intensity (a.u.)"
- sequence-code: "CCGTATTTTAATATATGACGTCGTTGACTTTTTAACCAACCGGAGTCACCTAGTGCAG"
  binding signal: "27300 fluorescence intensity (a.u.)"
- sequence-code: "TATGTGCTAAAAAGTCAACGGTGTCAAACATTTCGAAACGCGGAGTCACCTAGTGCAG"
  binding signal: "14000 fluorescence intensity (a.u.)"

Query: Tell me its binding signal given CCGTATTTTAATGCACGACACCTTTGACTTTTTGATAAACCGGAGTCACCTAGTGCAG as the entry.
Response: 9990 fluorescence intensity (a.u.)

Query: Tell me its binding signal given CATATTATAAATCATTTGACTTTTTTCATATTCAAAATTTCGGAGTCACCTAGTGCAG as the entry.
Response: 9090 fluorescence intensity (a.u.)

Query: Tell me its binding signal given ACGGGGATGACTCCGATGACTCTCCTGGCCTCGCCGCCTCCGGAGTCACCTAGTGCAG as the entry.
Response: 8120 fluorescence intensity (a.u.)

Query: Tell me its binding signal given AACAGCCTGTTTTTGTGTGTTTTTTTCGTAAGTAATTAGTCGGAGTCACCTAGTGCAG as the entry.
Response: 8760 fluorescence intensity (a.u.)

Query: Tell me its binding signal given AAACATGTGCTAAAAAGTCAACGGTGTCAAATATTTCGAACGGAGTCACCTAGTGCAG as the entry.
Response: 15600 fluorescence intensity (a.u.)

Query: Tell me its binding signal given TGACTTTTTAGCATATGTTTGACCGCTCGTCTTATTCAAACGGAGTCACCTAGTGCAG as the entry.
Response: 8220 fluorescence intensity (a.u.)

Query: Tell me its binding signal given TTAGCACATGTTTGACCGTTCGTCTTATTCAAAATTTTTTCGGAGTCACCTAGTGCAG as the entry.
Response: 12600 fluorescence intensity (a.u.)

Query: Tell me its binding signal given GTCCTTAACGACGTCGTTGACTTTTCACATAACATTATACCGGAGTCACCTAGTGCAG as the entry.
Response: 17300 fluorescence intensity (a.u.)

Query: Tell me its binding signal given CGTAGAAGATGTTGCTGTTGCCGCCGTTGACGAACTTGGTCGGAGTCACCTAGTGCAG as the entry.
Response: 8810 fluorescence intensity (a.u.)

Query: Tell me its binding signal given TTACCGATGCGACCTGTCCCTGTCACTCCCGCCTCGGTAACGGAGTCACCTAGTGCAG as the entry.
Response: 9060 fluorescence intensity (a.u.)

Query: Tell me its binding signal given TCTCGGCTCGCAATGCTTTTTGGAGTTTTGTTTCTCTCCCCGGAGTCACCTAGTGCAG as the entry.
Response: 10200 fluorescence intensity (a.u.)

Query: Tell me its binding signal given CATTGACTTTTTTAAACATGTTTGACTGTTCGTCTTATTCCGGAGTCACCTAGTGCAG as the entry.
Response: 11500 fluorescence intensity (a.u.)

Query: Tell me its binding signal given GTCACTTCTCCTTTTTTTTTGGCATGCAATAGACTTCCTTCGGAGTCACCTAGTGCAG as the entry.
Response: 8780 fluorescence intensity (a.u.)

Query: Tell me its binding signal given TATATTTTAATATTTTAATGTATGACGTCGTTGACTTTTTCGGAGTCACCTAGTGCAG as the entry.
Response: 13800 fluorescence intensity (a.u.)

---

- assay-system: OsWRKY34 (Oryza sativa, UniProt Q0JBA9 1-250)
- experimental-details: protein-binding microarray (RPBM); PBS, 2% BSA, 51.3 ng/ul salmon testes DNA, 50 uM zinc acetate, 200 nM TF, 25 C, 1 h; high values mean tight binding
- measurement-conditions: protein: recombinant; tags: N-terminal polyhistidine and DsRed monomer fusion (pET32a); label: CyDye5-dUTP incorporated in the synthesized complementary strand; 3' TTTTT single-stranded linker to array surface; dsDNA, one strand shown
The full ranking holds about 68,000 sequences; the median of “fluorescence intensity (a.u.)” is about 9,100, and the highest 2% start at about 16,000. Many of the other results were omitted from the sample, so the highest values are more common in it than they were.
reported-endpoint: binding signal

Some solved cases for reference:
- sequence-code: "AGCTTCAACCTCTTGTAACTTTCCTTTGAGTATATCTCTCCGGAGTCACCTAGTGCAG"
  binding signal: "10200 fluorescence intensity (a.u.)"
- sequence-code: "CTCCGTAAGCTCCAGCCCACTGCCACCGCTGCTCCAGCTACGGAGTCACCTAGTGCAG"
  binding signal: "8250 fluorescence intensity (a.u.)"
- sequence-code: "CTTTTTTGGGTGATTTTTTTTCACTTGGGGTGGGTGATAACGGAGTCACCTAGTGCAG"
  binding signal: "21800 fluorescence intensity (a.u.)"
- sequence-code: "AACGCGTGTATTTCTATGCTTTTGATATTGATCTTGCATCCGGAGTCACCTAGTGCAG"
  binding signal: "8230 fluorescence intensity (a.u.)"
- sequence-code: "CAGCCCACCGCCGCATCCTCGCAACCACTGTCTCGCTCTCCGGAGTCACCTAGTGCAG"
  binding signal: "17000 fluorescence intensity (a.u.)"
- sequence-code: "GCTAGGTCAACTTTGCTCTCAGCTCTCGCTCCCGATGCCACGGAGTCACCTAGTGCAG"
  binding signal: "9760 fluorescence intensity (a.u.)"
- sequence-code: "GTACATACCCGTATTATTTATCTGTCGCTATGTAGGATTTCGGAGTCACCTAGTGCAG"
  binding signal: "10500 fluorescence intensity (a.u.)"
- sequence-code: "TTGTCTCACCACTGCTTCGCATCCTCCGCCGCCGCCTCACCGGAGTCACCTAGTGCAG"
  binding signal: "11000 fluorescence intensity (a.u.)"

Query: Tell me its binding signal given TCTTCGTCGACACCACCCCAGCCGGTGTCCCCACGCGCTCCGGAGTCACCTAGTGCAG as the entry.
Response: 10100 fluorescence intensity (a.u.)

Query: Tell me its binding signal given CGTGGCCCATCTCCAATTCTCCAGTTGCTTCCTTTTCGTTCGGAGTCACCTAGTGCAG as the entry.
Response: 12600 fluorescence intensity (a.u.)

Query: Tell me its binding signal given TTTTTCTTTTCTTTTTTGCTTTTGAATTGTGGGGTTGTAACGGAGTCACCTAGTGCAG as the entry.
Response: 8790 fluorescence intensity (a.u.)

Query: Tell me its binding signal given TAGAGGGATGGGCTATTAAGTGTTTTATTTGGTTGGGAGACGGAGTCACCTAGTGCAG as the entry.
Response: 15200 fluorescence intensity (a.u.)

Query: Tell me its binding signal given GCGGATTTCCTTTCTAAACGTGCCAACGATGTGTTCTTGTCGGAGTCACCTAGTGCAG as the entry.
Response: 8250 fluorescence intensity (a.u.)

Query: Tell me its binding signal given GCAACCACTGTCTCGCTCTCCGCCGCCATCGCCGCCGCCGCGGAGTCACCTAGTGCAG as the entry.
Response: 10500 fluorescence intensity (a.u.)

Query: Tell me its binding signal given TTCCCCATGTTTTTTTGCCCACTAACTCACTAGCCACCACCGGAGTCACCTAGTGCAG as the entry.
Response: 10700 fluorescence intensity (a.u.)

Query: Tell me its binding signal given ATTTATTTTGGGATGGGGAGGGAGACAACTACAGTGTTTCCGGAGTCACCTAGTGCAG as the entry.
Response: 18200 fluorescence intensity (a.u.)

---

- assay-system: OsWRKY34 (Oryza sativa, UniProt Q0JBA9 1-250)
- experimental-details: protein-binding microarray (RPBM); PBS, 2% BSA, 51.3 ng/ul salmon testes DNA, 50 uM zinc acetate, 200 nM TF, 25 C, 1 h; high values mean tight binding
- measurement-conditions: protein: recombinant; tags: N-terminal polyhistidine and DsRed monomer fusion (pET32a); label: CyDye5-dUTP incorporated in the synthesized complementary strand; 3' TTTTT single-stranded linker to array surface; dsDNA, one strand shown
The full ranking holds about 68,000 sequences; the median of “fluorescence intensity (a.u.)” is about 9,100, and the highest 2% start at about 16,000. For the sample, the highest values were picked, then their nearest neighbours and some sequences at random.
# key: entry, value: binding signal

- sequence-code: "AGATTGTGGTGGGTGTTGATTGTGGTGATCTTGTCCCCTCCGGAGTCACCTAGTGCAG"
  reported-endpoint: "binding signal"
  endpoint-value: "13000 fluorescence intensity (a.u.)"
- sequence-code: "ACAATGTGACCCTATGTACAATTTACTCATATATTTTTATCGGAGTCACCTAGTGCAG"
  reported-endpoint: "binding signal"
  endpoint-value: "9570 fluorescence intensity (a.u.)"

Query: Tell me its binding signal given TAATATATGATCATACTTGTTTTATATACATTGTGTCTTGCGGAGTCACCTAGTGCAG as the entry.
Response: 9830 fluorescence intensity (a.u.)

Query: Tell me its binding signal given TGTTTGACGCCGTTGACTTTTTAGCACATGTTTGACCGTTCGGAGTCACCTAGTGCAG as the entry.
Response: 43600 fluorescence intensity (a.u.)
